Tested on: SRC;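 also: KINOMEscan kinase panel screen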
condition_notes: concentration: 1 μM, replicates: in singlicate; n = 1
Documented %Inh across a set of compounds
Reply numerically in %, unit not repeated.

Completed entries (count: 6):
COc1ccc(NC(=O)c2ccc(-c3cc(-c4nnc(C)o4)ccc3C)cc2)cc1 [GW595885]	0
CC(C)N1CCC(n2cnc(-c3ccc(F)cc3)c2-c2ccnc(N)n2)CC1 [SB-223132]	0
Cc1ccc(NC(=O)c2cccc(C#N)c2)cc1-c1ccc(C(=O)Nc2ccncc2)cc1 [GSK1398463]	26
Fc1ccc(Nc2nccc(-c3c(-c4ccc(Cl)cc4)nn4ncccc34)n2)cc1F [GW829058]	14
O=C(NCCCN1CCCC1=O)c1cnc(NCc2cc(Cl)ccc2Cl)nc1NC1CCNCC1	0
Cn1cc(-c2ccc3c(c2)CCN3C(=O)Cc2cccc(C(F)(F)F)c2)c2c(N)ncnc21 [GSK2606414]	5

For the record Clc1cccc(-c2nc(Nc3ccncc3)c3ccccc3n2)c1 [GW873004] , what value of %Inh is listed for SRC? 0

Hi! What's the reported %Inh for c1ccc(-c2ccc3c(-c4ccnc(Nc5ccc6c(c5)OCCO6)n4)cnn3n2)cc1 [GW818941] on SRC? 0

Checklist item: %Inh tested on SRC, entry N#Cc1ccc(Oc2ccc(Nc3ncnc4cc[nH]c34)cc2Cl)cc1 , value? 3
